# key: entry, value: REL TO ACTIVITY BEFORE PEG, AFTER PEG MODIFICATION
Biological target: Thrombin (Homo sapiens, UniProt P00734)
Test: thrombin inhibition activity assay (D.4), specific activity
Type: biochemical
Conditions: cysteine-PEGylated protein relative to same protein before PEGylation
Respond with the number and no other words.

In the examples that follow, each entry is paired with its recorded REL TO ACTIVITY BEFORE PEG, AFTER PEG MODIFICATION.
# MOLECULE, VAL
records = [
    ("E230C (conjugate, UniProt P07093 20-398, looked up, variant E230C, PEG) Glia-derived nexin: SHFNPLSLEELGSNTGIQVFNQIVKSRPHDNIVISPHGIASVLGMLQLGADGRTKKQLAMVMRYGVNGVGKILKKINKAIVSKKNKDIVTVANAVFVKNASEIEVPFVTRNKDVFQCEVRNVNFEDPASACDSINAWVKNETRDMIDNLLSPDLIDGVLTRLVLVNAVYFKGLWKSRFQPENTKKRTFVAADGKSYQVPMLAQLSVFRCGSTSAPNDLWYNFIELPYHGCSISMLIALPTESSTPLSAIIPHISTKTIDSWMSIMVPKRVQVILPKFTAVAQTDLKEPLKVLGITDMFDSSKANFAKITTGSENLHVSHILQKAKIEVSEDGTKASAATTAILIARSSPPWFIVDRPFLFFIRHNPTGAVLFMGQINKP", 2.8),
    ("N99C;N140C (protein, UniProt P07093 20-398, looked up, variant N99C N140C) Glia-derived nexin: SHFNPLSLEELGSNTGIQVFNQIVKSRPHDNIVISPHGIASVLGMLQLGADGRTKKQLAMVMRYGVNGVGKILKKINKAIVSKKNKDIVTVANAVFVKCASEIEVPFVTRNKDVFQCEVRNVNFEDPASACDSINAWVKCETRDMIDNLLSPDLIDGVLTRLVLVNAVYFKGLWKSRFQPENTKKRTFVAADGKSYQVPMLAQLSVFRCGSTSAPNDLWYNFIELPYHGESISMLIALPTESSTPLSAIIPHISTKTIDSWMSIMVPKRVQVILPKFTAVAQTDLKEPLKVLGITDMFDSSKANFAKITTGSENLHVSHILQKAKIEVSEDGTKASAATTAILIARSSPPWFIVDRPFLFFIRHNPTGAVLFMGQINKP", 2),
    ("PN-1 (protein, UniProt P07093 20-398, looked up) Glia-derived nexin: SHFNPLSLEELGSNTGIQVFNQIVKSRPHDNIVISPHGIASVLGMLQLGADGRTKKQLAMVMRYGVNGVGKILKKINKAIVSKKNKDIVTVANAVFVKNASEIEVPFVTRNKDVFQCEVRNVNFEDPASACDSINAWVKNETRDMIDNLLSPDLIDGVLTRLVLVNAVYFKGLWKSRFQPENTKKRTFVAADGKSYQVPMLAQLSVFRCGSTSAPNDLWYNFIELPYHGESISMLIALPTESSTPLSAIIPHISTKTIDSWMSIMVPKRVQVILPKFTAVAQTDLKEPLKVLGITDMFDSSKANFAKITTGSENLHVSHILQKAKIEVSEDGTKASAATTAILIARSSPPWFIVDRPFLFFIRHNPTGAVLFMGQINKP", 0.03),
]

Note: attention shifts to another entry.
Value lookup for REL TO ACTIVITY BEFORE PEG, AFTER PEG MODIFICATION; key = D192C (conjugate, UniProt P07093 20-398, looked up, variant D192C, PEG) Glia-derived nexin: SHFNPLSLEELGSNTGIQVFNQIVKSRPHDNIVISPHGIASVLGMLQLGADGRTKKQLAMVMRYGVNGVGKILKKINKAIVSKKNKDIVTVANAVFVKNASEIEVPFVTRNKDVFQCEVRNVNFEDPASACDSINAWVKNETRDMIDNLLSPDLIDGVLTRLVLVNAVYFKGLWKSRFQPENTKKRTFVAACGKSYQVPMLAQLSVFRCGSTSAPNDLWYNFIELPYHGESISMLIALPTESSTPLSAIIPHISTKTIDSWMSIMVPKRVQVILPKFTAVAQTDLKEPLKVLGITDMFDSSKANFAKITTGSENLHVSHILQKAKIEVSEDGTKASAATTAILIARSSPPWFIVDRPFLFFIRHNPTGAVLFMGQINKP
2
